- Tested on: c-Src
- TEST_METHOD_NOTES: phosphorylation enrichment, bacterial display (enrichment ratio); higher = better substrate or ligand; peptides without Tyr show the background
Catalogue of sequences with associated phosphorylation enrichment
# answer = number (no unit)

1) PNRILYGDFRQ [MYH6_Y717]
5.52
2) EGTATYAAAIL [JUP_Y644_V648I]
1.25
3) FSPPFYHRNCM [HGD_Y334_R330S_YF]
0.623
4) DVLVEYQEEGR [GNS_Y416_G418E]
0.496
5) ATHRGYDLDNP [MMUT_Y146_S148L]
0.377

Please state recorded phosphorylation enrichment (tested on c-Src) of SVTCTYSPALD [TP53_Y126_N131D] 0.745

Entry YSGDYYRIQGR [DDR2_Y741] please 2.31

Same question for SILAVYSKDIY [PANK2_Y400_N404I] please. 2.84

Entry to check: VDSNPYSRLMA [UBA5_Y53] 1.16

Next entry: ATPKGYEPDAS [OTC_Y223] 0.541

Request: TCFDKYTGSTF [FN1_Y101_N104S_YF] 0.529

Another: SVQVDYMKTIL [GLYATL2_Y127] 0.446

Request: VKANTYENFWP [GATM_Y100_K102N_YF] 4.08

// repeat for VEYAKYGSLQG [RET_Y809_R813Q] and report 1.44

And then LHQSTYQRYDV [SLC7A14_Y693] , what is it? 1.11

Then this sequence: RQRTAYFSLNT [CDH1_Y68_D72N] 0.667

HHLSTYTKMLF [CHST8_Y251_R247H] , same question. 0.71

Same lookup for RGSQQYRALTV [TUBB8_Y281] , please. 0.594

Can you handle DLLMQHPKAQG [FAM83C_Y600_Y600H] next? 0.646

Try this sequence next: VDSLRYIFPKL [EIF2B3_Y92_A87V_YF] 0.526

---

- ASSAYED_SYSTEM: Fes (UniProt P07332)
- Sequence (P07332 whole entry, looked up): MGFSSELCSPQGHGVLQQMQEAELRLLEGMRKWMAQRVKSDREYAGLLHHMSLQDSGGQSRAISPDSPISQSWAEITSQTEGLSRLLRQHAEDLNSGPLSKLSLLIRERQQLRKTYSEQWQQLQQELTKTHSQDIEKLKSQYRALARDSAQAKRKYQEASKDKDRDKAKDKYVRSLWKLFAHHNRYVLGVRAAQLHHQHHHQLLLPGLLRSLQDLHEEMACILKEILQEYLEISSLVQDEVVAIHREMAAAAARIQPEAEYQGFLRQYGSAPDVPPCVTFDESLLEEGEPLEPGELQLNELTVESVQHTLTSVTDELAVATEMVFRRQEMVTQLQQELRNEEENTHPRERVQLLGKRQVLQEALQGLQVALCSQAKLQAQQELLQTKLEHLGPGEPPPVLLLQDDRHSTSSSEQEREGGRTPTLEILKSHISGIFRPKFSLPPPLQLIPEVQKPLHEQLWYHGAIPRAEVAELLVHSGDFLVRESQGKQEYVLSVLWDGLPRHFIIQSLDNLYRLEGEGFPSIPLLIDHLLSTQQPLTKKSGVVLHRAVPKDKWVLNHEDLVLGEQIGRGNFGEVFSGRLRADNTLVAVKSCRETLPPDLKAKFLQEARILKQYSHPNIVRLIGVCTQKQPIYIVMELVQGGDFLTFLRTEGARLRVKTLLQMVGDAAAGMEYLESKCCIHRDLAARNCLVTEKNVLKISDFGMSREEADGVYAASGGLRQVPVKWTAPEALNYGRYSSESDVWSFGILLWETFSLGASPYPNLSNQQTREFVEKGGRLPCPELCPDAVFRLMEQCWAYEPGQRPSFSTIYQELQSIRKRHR
- TEST_METHOD_NOTES: phosphorylation enrichment, bacterial display (enrichment ratio); higher = better substrate or ligand; peptides without Tyr show the background
QUANTITY: phosphorylation enrichment
Please state the value as a number alone, without comment.

1) PSAVAYPKRSQ [MARK3_Y432_V429A]
0.818
2) SLESAYPEGSQ [TTF1_Y357]
0.968
3) REAMEYLESKQ [BTK_Y511_C506R]
1.15
4) AAALAYGLDKS [HSPA9_Y230]
1.12
5) YTHSDYQYSQR [PKP2_Y166]
0.594

Now consider the entry below.
Hello, I am looking for reported phosphorylation enrichment with Fes (UniProt P07332) for ALDHKYHGGGG [HBB_Y146_A143D] . Could you help? 0.526

---

- ASSAYED_SYSTEM: Jak2 (UniProt O60674)
- Sequence (O60674 whole entry, looked up): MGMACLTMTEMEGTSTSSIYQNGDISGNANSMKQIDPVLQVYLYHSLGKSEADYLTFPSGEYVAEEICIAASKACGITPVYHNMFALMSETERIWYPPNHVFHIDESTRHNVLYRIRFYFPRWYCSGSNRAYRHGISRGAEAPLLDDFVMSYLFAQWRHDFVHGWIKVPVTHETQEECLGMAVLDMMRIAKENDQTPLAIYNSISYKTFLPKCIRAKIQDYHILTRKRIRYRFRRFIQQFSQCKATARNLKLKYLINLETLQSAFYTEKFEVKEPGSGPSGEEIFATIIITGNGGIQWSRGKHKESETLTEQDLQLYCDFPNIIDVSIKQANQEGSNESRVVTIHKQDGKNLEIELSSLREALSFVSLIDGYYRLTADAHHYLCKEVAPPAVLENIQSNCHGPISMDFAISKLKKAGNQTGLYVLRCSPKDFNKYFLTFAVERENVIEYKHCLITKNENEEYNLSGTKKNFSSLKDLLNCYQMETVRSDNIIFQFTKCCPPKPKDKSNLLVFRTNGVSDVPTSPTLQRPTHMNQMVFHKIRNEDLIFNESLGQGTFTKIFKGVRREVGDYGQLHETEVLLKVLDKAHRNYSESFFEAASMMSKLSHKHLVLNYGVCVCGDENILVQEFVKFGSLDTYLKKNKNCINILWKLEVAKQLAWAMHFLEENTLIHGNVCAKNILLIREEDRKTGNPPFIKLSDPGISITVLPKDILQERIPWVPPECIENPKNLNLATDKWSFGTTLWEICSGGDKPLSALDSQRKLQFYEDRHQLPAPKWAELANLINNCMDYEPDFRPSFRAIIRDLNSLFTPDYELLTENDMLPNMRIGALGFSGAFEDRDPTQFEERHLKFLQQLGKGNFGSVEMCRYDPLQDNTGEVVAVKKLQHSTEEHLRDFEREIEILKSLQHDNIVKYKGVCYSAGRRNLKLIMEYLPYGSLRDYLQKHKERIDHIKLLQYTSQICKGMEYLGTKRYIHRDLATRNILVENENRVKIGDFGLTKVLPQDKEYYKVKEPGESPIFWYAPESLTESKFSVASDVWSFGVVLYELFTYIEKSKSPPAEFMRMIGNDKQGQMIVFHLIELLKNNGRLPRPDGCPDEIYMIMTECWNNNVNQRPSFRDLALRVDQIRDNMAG
- TEST_METHOD_NOTES: phosphorylation enrichment, bacterial display (enrichment ratio); higher = better substrate or ligand; peptides without Tyr show the background
Measured phosphorylation enrichment of individual entries
Reply: number alone, nothing else.

A selection of reference data follows.
1) AAGGRYDGLLG [HARS2_Y364_V368L]
0.645
2) KVALVYGQMNE [ATP5F1B_Y269]
0.769
3) NETNKYQISVN [FGB_Y368_A365T]
0.684
4) AVVEPYNSLLT [TUBA1A_Y185_I188L]
1.19

What does the data say about its phosphorylation enrichment? Entry: HLQDEYDFKCK [STAT1_Y170_D165H] 1.5

---

- Test system: c-Src
- TEST_METHOD_NOTES: phosphorylation enrichment, bacterial display (enrichment ratio); higher = better substrate or ligand; peptides without Tyr show the background
Categorize each record by its phosphorylation enrichment using bottom end = under 0.5, midrange = from 0.5 up to 0.8, top end = 0.8 and over

1. ARRHPYFFAPE [ALB_Y172_Y174F]
midrange
2. REGAKYVSHCA [ASS1_Y113_G117C]
midrange
3. GMAHNYRNSSQ [AASS_Y188]
bottom end

Turning now to a further record.
Class for KTGNIYRTEYG [MRPL3_Y265_M261T] ? bottom end

---

- Test system: Fer (mouse)
- TEST_METHOD_NOTES: phosphorylation enrichment, bacterial display (enrichment ratio); higher = better substrate or ligand; peptides without Tyr show the background
QUANTITY: phosphorylation enrichment
Lab note: jot the number down without any unit.

1. EDASEYFENYI [PARP4_Y214]
0.51
2. EREYKYGAHNY [OAT_Y50]
0.35

Let us examine a further case.
Query the reported phosphorylation enrichment for Fer (mouse); item: SVVVPYEPPEL [TP53_Y220_V225L] 0.491

---

- ASSAYED_SYSTEM: Fyn (UniProt P06241)
- Sequence (P06241 whole entry, looked up): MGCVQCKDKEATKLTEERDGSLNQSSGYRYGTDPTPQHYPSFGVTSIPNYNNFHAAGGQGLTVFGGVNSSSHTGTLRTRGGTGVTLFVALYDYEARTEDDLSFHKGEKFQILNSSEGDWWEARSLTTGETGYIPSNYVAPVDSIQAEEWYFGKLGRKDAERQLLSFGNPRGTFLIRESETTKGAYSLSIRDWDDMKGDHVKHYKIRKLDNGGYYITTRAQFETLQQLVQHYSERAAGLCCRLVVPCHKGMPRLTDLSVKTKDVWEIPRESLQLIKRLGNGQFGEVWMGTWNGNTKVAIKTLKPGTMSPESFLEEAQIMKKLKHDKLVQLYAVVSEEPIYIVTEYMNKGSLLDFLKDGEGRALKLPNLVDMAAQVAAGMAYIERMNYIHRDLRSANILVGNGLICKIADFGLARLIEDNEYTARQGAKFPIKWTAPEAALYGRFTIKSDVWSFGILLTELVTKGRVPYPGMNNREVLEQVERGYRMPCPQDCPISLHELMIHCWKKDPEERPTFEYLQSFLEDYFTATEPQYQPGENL
- TEST_METHOD_NOTES: phosphorylation enrichment, bacterial display (enrichment ratio); higher = better substrate or ligand; peptides without Tyr show the background
QUANTITY: phosphorylation enrichment
The response must contain the number and no unit.

1. PDMHSYMVRFN [GRIN2D_Y732_YF]
0.629
2. PQAVTYAEVKH [LILRB4_Y360_K362E]
5.58
3. QCTSDYPEHVC [SART3_Y541]
0.605
4. IGMLIYFARKA [VCAM1_Y718_I716L]
0.453
5. NCLRQYVAGRF [CRB1_Y711_E710Q]
0.477
6. AELVQYYMEHH [PTPN11_Y80]
0.654
7. KIVQDYLEKFF [MMP8_Y36_T32I_YF]
0.614
8. VIESSYQVAKA [CPT1B_Y534]
0.457

Consider the sequence shown here: VVDVTYDDVPI [FLNB_Y1308_E1305D] What is its recorded phosphorylation enrichment? 1.04

Again, but for MARDIYQASFF [LTK_Y672_R673Q_YF] 6.4

Same lookup for VSTKVYKRFPS [BEST1_Y148_A146K] , please. 0.366

---

- ASSAYED_SYSTEM: Jak2 (UniProt O60674)
- TEST_METHOD_NOTES: phosphorylation enrichment, bacterial display (enrichment ratio); higher = better substrate or ligand; peptides without Tyr show the background
Please use yes whenever phosphorylation enrichment is not below 0.7, and no whenever it is.

Worked set:
1) TSNQEYLFLSM [FGFR1_Y766_D768Y_YF]
yes
2) PTFEHYANSTQ [SLC12A3_Y70_YF]
yes
3) RAVLLYEYVGK [NATD1_Y45]
yes
4) EEHIPYTHMNG [INSR_Y1361]
no
5) NGPDVYVLPVT [AATK_Y93_L97V]
yes

Confirm if phosphorylation enrichment reported for the sequence ALAHKYDGGGG [HBB_Y146_H147D] is 0.7 or above. yes

Same question for LWEGSYGKVKE [STK11_Y60_G56W] please. yes

What would you report for GGMTEYNLVVV [KRAS_Y4_K5N] ? yes

And what about the sequence CTTIHHNYMCN [TP53_Y234_Y234H] ? yes

Thanks! And IENKPYGMSDP [RET_Y1062_L1061P] ? yes

Next entry: RKELFYKADGE [SERPINC1_Y272] yes

Likewise for LAETSYVTVLE [MAGEA1_Y276_K278T] ? yes

Now this one: SAPDSYIGIGN [SLC38A4_Y27] yes

---

- ASSAYED_SYSTEM: Fes (UniProt P07332)
- TEST_METHOD_NOTES: phosphorylation enrichment, bacterial display (enrichment ratio); higher = better substrate or ligand; peptides without Tyr show the background
Quick reference for phosphorylation enrichment among some sequences
In your answer, state the number alone without any accompanying words.

1) RAEAPYLLVSN [LRIG1_Y1054_Q1053P]
0.775
2) YEEDSYVKRSQ [RET_Y905]
1.23
3) KAEELYIGVTV [EFHC2_Y509]
1.35
4) RKVAQYMLENE [SLC16A6_Y224_E221V]
0.859

Which value of phosphorylation enrichment has been reported for PTFEHYANSTQ [SLC12A3_Y70_YF] in the records? 1.07

// next record SVQVDYMKTIL [GLYATL2_Y127] 0.776

VNKIYHPDFIV [LIG3_Y768_Y768H] , same question. 0.715

Can you check REVPVYTFSEP [FAM120B_Y368_D370Y_YF] next? 1.54

Quick one: RRIHSYRGHLW [VHL_Y112] 2.9

---

- ASSAYED_SYSTEM: c-Src SH2;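 further: peptide library displayed on the E. coli surface as eCPX fusions, selected cells deep-sequenced, score is each peptide's frequency after selection divided by its frequency in the input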
- TEST_METHOD_NOTES: SH2 binding enrichment of the phosphorylated peptide, bacterial display (enrichment ratio); higher = better substrate or ligand; peptides without Tyr show the background
// reported SH2 binding enrichment per item
Output spec: single numeric token, no unit.

Could you tell me which SH2 binding enrichment is on file for GDAMLYFPSVS [GPR143_Y177_A173D_YF] ? 0.528
